- ASSAY_COMMENT: chemical genetic growth profiling, strain panel (AID 1159580);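 further: tested at 20 µM; growth read once vehicle control cultures reached saturation at 30 °C; 1 = growth at the plate median or of vehicle wells; lower values mean less growth of the strain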
- EXPERIMENTAL_PARAMETERS: S. cerevisiae deletion strains, growth OD, locus YCL069W, strain vba3, stronger effect = lower value
Where a name gives a salt, the structure may show the parent alone. In all, about 5,500 compounds went through this assay and about 2,000 (36%) were called active. Not shown: some 18% with an inconclusive outcome. The list shows a part of the results. Where a SMILES comes first, the peptide text is derived from it. The star is where a group is joined. Tfa = O=C(C(F)(F)F)*
QUANTITY_KIND: normalized growth
Lab note: jot down the number only; don't add units.

normalized growth for `C[C@H]1COC2=C1C(=O)C(=O)c1c2ccc2c1CCCC2(C)C` is 0.659

normalized growth measured on `Cn1c(=O)c2[nH]cnc2n(C)c1=O` = 1

The molecule C=CCCCCCCCCCCCC(O)CC(O)COC(C)=O (stereo not drawn) (tested in a mixture with another compound) showed normalized growth equal to 0.963

Entry under test: C#CCCCCCCCCCCCC(O)CC(O)COC(C)=O (stereo not drawn) . Its normalized growth was 0.852

normalized growth in this record for `CCNC(=O)CC[C@H](N)C(=O)O` : 1.01

Please fill in: normalized growth reported for CO/N=C(\C(=O)NC1C(=O)N2C(C(=O)OC(C)OC(C)=O)=C(COC(N)=O)CSC12)c1ccco1 (stereo not drawn) = 0.989

// normalized growth lookup, molecule = CCCCN1CCCCC1C(=O)Nc1c(C)cccc1C (stereo not drawn) , result: 0.99

Value of measured normalized growth for the entry `CO/N=C(\C(=O)N[C@@H]1C(=O)N2C(C(=O)O)=C(CSc3nc(=O)c(O)nn3C)CS[C@H]12)c1csc(N)n1` : 0.986

Reported normalized growth ( `CCCCC(=O)Oc1ccccc1C(=O)O` ) = 0.996

So for `CC(C)NC[C@H](O)COc1cccc2ccccc12` , the logged normalized growth turned out to be 0.993

Field normalized growth (entry `CCCCOC(=O)c1ccccc1C(=O)OCCCC` ) reads 0.985

Sample C=C1CCC2C(CC2(C)C)C(=C)CC/C1=N\O (stereo not drawn) ; normalized growth observed: 1.01

# molecule `COc1ccc([C@H]2Oc3cc(OC)cc(OC)c3C[C@H]2O)cc1` ; its normalized growth = 0.996

GET /value?item= NC(CO)C(=O)NNCc1ccc(O)c(O)c1O (stereo not drawn) &field=normalized growth returns 0.968

Just so you know, measured normalized growth for `O=C1OC(c2ccc(O)cc2)(c2ccc(O)cc2)c2ccccc21` came out at 0.969

Notebook: CO[C@@]1(NC(=O)CSCC#N)C(=O)N2C(C(=O)O)=C(CSc3nnnn3C)CSC21 (stereo partly drawn) , normalized growth read as 0.986

Lab note: measured normalized growth of C=C1C(=O)O[C@@H]2C3O[C@]3(C)CC/C=C(\C)CC[C@@H]12 (stereo partly drawn) was 1

# normalized growth of `Cc1ccc(Cl)c(Nc2ccccc2C(=O)O)c1Cl` = 0.866

Sure, the documented normalized growth for `CCCOc1ccc(C(=O)OCCN(CC)CC)cc1N` is 0.999

Note to self: normalized growth recorded for `OC(Cn1cncn1)(Cn1cncn1)c1ccc(F)cc1F` was 1

// normalized growth lookup, molecule = `O=C(Cn1ccnc1[N+](=O)[O-])NCCO` , result: 1.01

Recorded result, CC1C[C@H]2CC(=O)[C@H]3CCCN4CCC[C@H]2[C@]34C1 (stereo partly drawn) , normalized growth: 1.01

The recorded normalized growth for `CCCCNc1ccc(C(=O)OCCN(C)C)cc1` is 1.01

Sure, the documented normalized growth for C=C1CCC(C2CC(=O)OC2=O)C(=O)CCC2C1CC2(C)C (stereo not drawn) is 1.02

Entry `CO/N=C(\C(=O)N[C@@H]1C(=O)N2C(C(=O)O)=C(COC(C)=O)CS[C@H]12)c1csc(N)n1` — recorded normalized growth = 0.995

// sample `CC1(C)O[C@H]2[C@H](O)C[C@](O)(C(N)=O)C[C@H]2O1` , its normalized growth was 1.02

So, C[C@@H]1C(=O)OC2[C@H](O)C34[C@@H]5OC(=O)[C@@]3(O[C@@H]3OC(=O)[C@H](O)[C@@]34[C@H](C(C)(C)C)[C@H]5O)[C@]21O (stereo partly drawn) ? Its normalized growth was 0.976

The reported normalized growth of the molecule `COc1cc([C@@H]2c3cc4c(c(O)c3C[C@H]3COC(=O)[C@@H]32)OCO4)cc(OC)c1OC` was 1

The molecule listed as CC(C)C(C)/C=C/C(C)[C@H]1CCC2C3=CCC4CC(=O)CC[C@]4(C)C3CC[C@@]21C (stereo partly drawn) shows normalized growth equal to 0.996

normalized growth recorded for this molecule, COc1ccc2c(c1OC)C(=O)OC2[C@H]1c2c(cc3c(c2OC)OCO3)CCN1C (stereo partly drawn) , is 1.01

What the record says about CC(C)C(NC(=O)C(Cc1ccc(O)cc1)NC(=O)C(NC(=O)C(F)(F)F)C(C)C)C(=O)O (stereo not drawn) (Tfa-Val-Tyr-Val-OH; configuration not given here) : normalized growth is 1

// field: normalized growth; key: O=C1CC2OCC=C3CN4CC[C@]56c7ccccc7N1C5[C@H]2[C@H]3CC46 (stereo partly drawn) ; value = 1.02

Given item C=C1CCC2C(CC2(C)C)C(=O)CCC1O (stereo not drawn) , the value recorded as its normalized growth is 0.999

Data point: `CC(C)[C@@H]1CC[C@@H](C)C[C@H]1O` ; normalized growth = 0.973

// `CCCCOC(=O)c1ccc(N)cc1` : normalized growth value = 0.886

Reported normalized growth of `Cc1cc(-c2ccccc2)nnc1NCCN1CCOCC1` : 0.988

Reported normalized growth ( `N[C@@H](CC(=O)N1CCn2c(nnc2C(F)(F)F)C1)Cc1cc(F)c(F)cc1F` ) = 0.984

`CC[N+](CC)(CC)CCOc1cccc(OCC[N+](CC)(CC)CC)c1OCC[N+](CC)(CC)CC` yielded normalized growth of 1.01

`Nc1ccc(N=Nc2ccccc2)c(N)n1` has a reported normalized growth of 0.725

For reference, reported normalized growth for `CC(C)NNC(=O)c1ccncc1` stands at 1.02

Documented normalized growth of CC(=O)OCC(OC(C)=O)C(OC(C)=O)C(OC(C)=O)C(OC(C)=O)C(COC(C)=O)OC(C)=O (stereo not drawn) : 0.999

Memo: `O=C1OC2(c3ccc(O)cc3Oc3cc(O)ccc32)c2ccccc21` , reported normalized growth: 1.02

response.value for CO/N=C(\C(=O)NC1C(=O)N2C(C(=O)O)=C(COC(N)=O)CSC12)c1ccco1 (stereo not drawn) (field: normalized growth) = 0.977

Hello, the source for this data is PubChem BioAssay AID1159580, in case you need it.
